Would you mind telling me the reported soluble fraction (log2) of each entry?
# Procedure Summary: soluble fraction after stress (log2 fold change); higher = more stays soluble; pooled small domains, quantitative proteomics;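 also: 20 min heating vs room temperature control held 20 min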
# Measurement Setup: stress: 75 degC
Answers are plain numbers.

Query :: May I ask what soluble fraction (log2) has been recorded for `HMDTIVHFLSDGRRITVRIKRNARKNIILRPMAADAVSATIPPWLGRRQLSAWLSEREDLLLSVLSRAA` ?
Result :: -3.34

Query :: Can you look up the measured soluble fraction (log2) of `HMNDNTAINEFKKMVFTRMVHLQIDNAELSKLSGVTNSKILALKYGNSNTLKLGDIVKVAKTLNINLNDL` for me?
Result :: -2.86

Query :: # get_value(readout='soluble fraction (log2)', item= `HMINLDGIGEKISRLRKEQGVTIRELSEYTGYSVGFLSNLETGKNSPTVESLQRVAEALRTDIIEILTK` )
Result :: -1.2

Query :: For `HMINDPSALGQRAFVDELLWMAGYVPEKIEIYQTLPNNSRVYRVKLDSVNGGFIFIRWDKKKKEHYV` , what is its reported soluble fraction (log2)?
Result :: 0.106

Query :: Report soluble fraction (log2) for `HMDLTSDANLKEAKDQILNLLNDGKRHHVTEINKILLPPVQVQEALRFLIHEETVRVDASFLF` please.
Result :: -0.104

Query :: What value of soluble fraction (log2) has been recorded for this entry: `HMRDKSITFSEFVKLLDEGQIQKVTLTGNEILGTQKSGDKFRTYAPPQYEGLGNKLVERSVEVTAKE`
Result :: 0.378

Batch request: soluble fraction (log2) for each of the following sequences.
1. HMEASVNAPMPGKIVSVSVSEGQQVNAGDVLLILEAMKMQNEITADAAGTVKAINVNAGQSVKNGDSLVIL
2. HMSKSIELMNEIKKYIEEYYLQYRQSPSTTKIAEAVGIARGTAYKYLVEMSERNMIEYDGQEISTEVTRKY
3. HMIVIMKAKAEEEDVNRVIDTIQSLGLRTQLNLGAERMVVAVIGDISKIGEDNFFRIRAMKGVENTVFVSK
4. HMEALPELTDRQRQVYEFIEARIAEWGYPPTIREIGQHLGIKSTNGVADHLKALKRKGYLQQ

Result ::
1. 0.832
2. -1.43
3. -2.12
4. -0.566

Report soluble fraction (log2) for each item below.
1. HMELEDTYTKNLDASLARLDEYQASKGLTDEQVDEVINSLIADAENIIMGVFTPELIDSKLKAMNYDQDV
2. HMAQDIEQLEKAVSFYTRMDPAAAALSITNLDQKTAVNILMRMKDKQASAVLESMTAERSSELIDSIARK
3. HMPESFSEMQKRTGVGEFSDDALSAKYVDSIDADVMSLDEYIMKVRGISLDDLEAERALRAR
4. HMARRSRADAVRNREALIDAAKAAFTEAGPDVSLEEIARRAGVGIGTLYRHFPTRDAVIEAVYR

Result ::
1: 0.119; 2: 0.0292; 3: 0.0969; 4: -0.185
